t1/2 values, listed per item
# target.of.assay: T1, Human TROP2 ECD (31-274 AA), biotinylated (human, UniProt P09758 31-274, biotinylated (site not stated))
# T1 construct: also called tumor-associated calcium signal transducer 2; Human TROP2-biotin
# T1 sequence: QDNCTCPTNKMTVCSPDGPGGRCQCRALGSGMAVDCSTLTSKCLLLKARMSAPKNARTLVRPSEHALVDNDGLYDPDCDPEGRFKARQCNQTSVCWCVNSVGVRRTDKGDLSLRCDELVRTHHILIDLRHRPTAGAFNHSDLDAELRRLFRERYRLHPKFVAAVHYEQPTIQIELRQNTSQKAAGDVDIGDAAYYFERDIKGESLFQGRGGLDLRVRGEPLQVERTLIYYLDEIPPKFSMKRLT
# measurement.protocol: BLI (Octet), dissociation half-life from biotinylated human TROP2 ECD

[
  {
    "binder": "TBD-6 (anti-TROP2 Fab, LC I93A) (Fab, V domains shown, also called TBD-6 (LC I93A mutant)) VH: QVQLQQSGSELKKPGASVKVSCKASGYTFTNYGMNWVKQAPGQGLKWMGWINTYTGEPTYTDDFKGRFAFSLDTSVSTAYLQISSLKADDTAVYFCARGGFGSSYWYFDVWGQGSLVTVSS VL: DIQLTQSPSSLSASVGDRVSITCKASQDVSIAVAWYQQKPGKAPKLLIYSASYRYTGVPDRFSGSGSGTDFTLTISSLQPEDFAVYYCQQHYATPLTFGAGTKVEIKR",
    "t1/2": "28 min"
  },
  {
    "binder": "TBD-7 (anti-TROP2 Fab, LC T94A) (Fab, V domains shown) VH: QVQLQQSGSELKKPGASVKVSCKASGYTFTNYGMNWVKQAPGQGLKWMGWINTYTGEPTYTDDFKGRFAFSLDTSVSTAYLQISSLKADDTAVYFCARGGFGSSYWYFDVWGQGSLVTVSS VL: DIQLTQSPSSLSASVGDRVSITCKASQDVSIAVAWYQQKPGKAPKLLIYSASYRYTGVPDRFSGSGSGTDFTLTISSLQPEDFAVYYCQQHYIAPLTFGAGTKVEIKR",
    "t1/2": "39 min"
  },
  {
    "binder": "TBD-10 (anti-TROP2 Fab, LC T97A) (Fab, V domains shown) VH: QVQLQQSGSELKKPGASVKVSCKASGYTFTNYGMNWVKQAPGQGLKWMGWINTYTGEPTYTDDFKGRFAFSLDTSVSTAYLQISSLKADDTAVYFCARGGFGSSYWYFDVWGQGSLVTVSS VL: DIQLTQSPSSLSASVGDRVSITCKASQDVSIAVAWYQQKPGKAPKLLIYSASYRYTGVPDRFSGSGSGTDFTLTISSLQPEDFAVYYCQQHYITPLAFGAGTKVEIKR",
    "t1/2": "37 min"
  }
]
